- measurement_description: in vivo
- conditions_used: mouse, iv
Ends that are not written are not given here.
endpoint_name: half-life

INSERT INTO assay_data (substance, endpoint_name, recorded_measurement) VALUES
  ('KPRRPYTSDYTRLRKQMAVKKYLNLILNHHHHHH-NH2 [ANT308-6xHis]', 'half-life', '~15 min');

###

- measurement_description: in vitro
- Type: in vitro ADME
- conditions_used: human, plasma
Ends that are not written are not given here.
endpoint_name: half-life

INSERT INTO measurements (substance, recorded_measurement) VALUES
  ('KPRRPYTSDYTRLRKQMAVKKYLNLILNHHHHHH-NH2 [ANT308-6xHis]', '~15 min');
